# assay.notes: qHTS for Inhibitors of human tyrosyl-DNA phosphodiesterase 1 (TDP1): qHTS in cells in presence of CPT; note: nearly all actives have a fitted effect of over 55% in size
# conditions.used: chicken DT40 Tdp1-/-;hTDP1 cells + 20 nM CPT, ATP luminescence, 48 h; series mostly up to 46.2 µM
The campaign covered roughly 420,000 compounds. About 50,000 (12%) were called active. Another 26% or so got no clear call; they are omitted. Calls come from the whole dose curve; as a rule, active = well fitted inhibition curve with a large enough effect; inconclusive = small, poorly fitted or top-dose-only effect; inactive = flat fitted curve, though single readings scatter. Shown is part of a subset that was picked to be rich in actives.
The categories you may choose from are TRUE = active, FALSE = inactive

O=C(Nc1cccc(F)c1)N1CCC2(CC1)CCN(S(=O)(=O)c1ccccc1)CC2
FALSE
CCOc1ccc(NC(=O)Cn2cc(C(=O)c3ccc(C)cc3)c(=O)c3cc4c(cc32)OCCO4)cc1
FALSE
COc1cccc(OCC(=O)NCCS(=O)(=O)N2CCN(c3ccccc3)CC2)c1
FALSE
CC(Nc1nc(C(F)(F)F)nc2ccccc12)c1cccs1 (stereo not drawn)
TRUE

Ask: Tell me the assay call for `Cc1ccc(CCC(=O)Nc2ncc(Cc3cc(Cl)ccc3Cl)s2)o1` please.
Result: TRUE

Ask: Tell me the assay call for `COc1cc(C(=O)NCC(=O)N2CC=C(c3ccccc3)CC2)cc(OC)c1OC` please.
Result: TRUE

Ask: Tell me the assay call for CCC(c1nnnn1Cc1ccco1)N(CCc1ccccc1)Cc1cc2ccc(OC)cc2[nH]c1=O (stereo not drawn) please.
Result: TRUE

Source of measurements: PubChem BioAssay AID686979
